What self-cleavage was measured for each of the following?
B1: Hairpin Ribozyme (parent)
chain: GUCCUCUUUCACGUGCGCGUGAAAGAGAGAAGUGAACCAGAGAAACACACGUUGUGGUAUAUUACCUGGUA

variants of: B1; assay: self-cleavage, relative activity (ratio to wild type); higher = more cleavage; co-transcriptional

In the examples that follow, each entry is paired with its recorded self-cleavage.
VARIANT_ANNOTATION	self-cleavage
G17U U70A	0.95
G19U A39C	0.502
C6A A11C	0.415
A36U G40C	0.101

Please give self-cleavage for each item listed below.
1. U33C C66U
2. U20A U62C
3. U7C G17C
4. G21A A59U
5. G1C U9C
6. U2C C10G

[0.149, 0.446, 0.527, 0.142, 0.198, 0.118]

Please give self-cleavage for each item listed below.
1. G54U U58C
2. U9A G13U

1: 0.713; 2: 0.479

Please give self-cleavage for each item listed below.
1. C18A C50U
2. G54U U60A
3. C4G G69C
4. U8C U62A
5. U33A A64G
6. U14C C37A

0.428
0.252
0.193
0.192
0.164
0.245

Please give self-cleavage for each item listed below.
1. A36C U52A
2. C6A G19U
3. U9G A22C
4. A64C C66A

1: 0.768; 2: 0.505; 3: 0.677; 4: 0.0503

Values were extracted from the RNAGym collection of RNA variant scans (doi:10.7554/elife.80360).
